target or test system: IKZF2 (Homo sapiens, UniProt Q96SW2+Q9UKS7)
Sequence (Q9UKS7 whole entry): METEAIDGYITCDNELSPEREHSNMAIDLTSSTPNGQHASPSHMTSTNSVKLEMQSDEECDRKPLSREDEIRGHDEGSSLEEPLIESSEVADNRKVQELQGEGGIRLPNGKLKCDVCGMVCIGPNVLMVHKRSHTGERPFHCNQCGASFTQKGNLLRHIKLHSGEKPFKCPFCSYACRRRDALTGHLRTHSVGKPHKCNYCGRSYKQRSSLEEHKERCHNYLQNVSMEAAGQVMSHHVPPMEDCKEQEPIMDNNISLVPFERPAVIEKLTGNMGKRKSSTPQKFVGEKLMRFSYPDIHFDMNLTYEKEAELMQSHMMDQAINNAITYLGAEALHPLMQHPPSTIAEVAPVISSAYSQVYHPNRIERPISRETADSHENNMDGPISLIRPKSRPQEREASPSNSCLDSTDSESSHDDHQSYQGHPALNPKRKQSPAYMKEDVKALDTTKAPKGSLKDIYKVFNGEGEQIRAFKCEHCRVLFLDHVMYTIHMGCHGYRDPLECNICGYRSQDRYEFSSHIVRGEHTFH
Sequence (Q96SW2 whole entry): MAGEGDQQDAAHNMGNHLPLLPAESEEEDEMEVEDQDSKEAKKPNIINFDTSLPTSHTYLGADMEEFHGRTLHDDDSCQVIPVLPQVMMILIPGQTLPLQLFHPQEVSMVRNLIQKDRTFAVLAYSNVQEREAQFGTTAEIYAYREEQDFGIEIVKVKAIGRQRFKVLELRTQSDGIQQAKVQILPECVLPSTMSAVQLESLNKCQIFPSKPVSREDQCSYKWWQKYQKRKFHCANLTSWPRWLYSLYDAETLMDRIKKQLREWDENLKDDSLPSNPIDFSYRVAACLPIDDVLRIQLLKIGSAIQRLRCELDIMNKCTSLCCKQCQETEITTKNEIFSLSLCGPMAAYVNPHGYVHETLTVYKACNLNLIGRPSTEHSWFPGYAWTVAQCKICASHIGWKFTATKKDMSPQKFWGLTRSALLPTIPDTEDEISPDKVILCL
Sequence (Q16531 whole entry partner): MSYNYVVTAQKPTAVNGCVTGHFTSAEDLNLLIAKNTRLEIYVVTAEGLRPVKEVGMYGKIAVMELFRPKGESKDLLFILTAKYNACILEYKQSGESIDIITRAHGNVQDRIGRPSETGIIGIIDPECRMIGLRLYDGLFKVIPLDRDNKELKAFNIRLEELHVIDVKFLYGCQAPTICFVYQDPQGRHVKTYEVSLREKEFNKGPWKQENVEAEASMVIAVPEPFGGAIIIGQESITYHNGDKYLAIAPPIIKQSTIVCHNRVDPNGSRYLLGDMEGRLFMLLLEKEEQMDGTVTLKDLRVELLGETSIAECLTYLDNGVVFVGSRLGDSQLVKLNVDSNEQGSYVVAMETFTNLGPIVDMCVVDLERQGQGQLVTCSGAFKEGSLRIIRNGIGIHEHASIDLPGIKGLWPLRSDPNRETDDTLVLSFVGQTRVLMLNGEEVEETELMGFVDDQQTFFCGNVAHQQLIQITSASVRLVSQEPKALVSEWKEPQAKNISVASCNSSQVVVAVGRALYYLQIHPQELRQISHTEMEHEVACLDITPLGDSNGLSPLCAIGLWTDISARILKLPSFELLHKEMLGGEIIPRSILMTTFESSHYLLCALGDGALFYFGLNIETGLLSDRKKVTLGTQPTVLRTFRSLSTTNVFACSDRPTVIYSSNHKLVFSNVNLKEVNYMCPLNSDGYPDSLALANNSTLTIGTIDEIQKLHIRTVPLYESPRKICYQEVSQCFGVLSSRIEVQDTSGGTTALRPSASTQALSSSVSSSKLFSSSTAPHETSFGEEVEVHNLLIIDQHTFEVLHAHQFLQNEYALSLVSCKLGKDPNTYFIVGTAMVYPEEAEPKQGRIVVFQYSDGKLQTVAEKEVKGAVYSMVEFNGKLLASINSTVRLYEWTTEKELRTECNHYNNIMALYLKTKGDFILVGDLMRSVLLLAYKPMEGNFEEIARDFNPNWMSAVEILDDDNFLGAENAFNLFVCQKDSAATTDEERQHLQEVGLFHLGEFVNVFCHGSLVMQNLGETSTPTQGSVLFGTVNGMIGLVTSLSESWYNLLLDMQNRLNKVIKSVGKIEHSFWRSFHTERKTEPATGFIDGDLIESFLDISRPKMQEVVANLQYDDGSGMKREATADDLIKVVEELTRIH
procedure text: Prolabel quantification of IKZF2 protein levels in 293GT cells
Assay type: cell-based
assay conditions: 24 h, 10 μM, 24 h, 293GT cells; read-out: IKZF2 % protein reduction at 10 μM, 24 h
Label rule, in plain words: inhibition at 10 µM of 70% and up is 1.0, under 70% is 0.0.

Evaluate CC1(C)CN(Cc2ccccc2)CCC1c1ccc2c(c1)CN(C1CCC(=O)NC1=O)C2=O (centres unmarked) [Compound I-185] : inhibition at 10 µM at minimum 70%?
0.0

Hi team, for O=C1CCC(N2Cc3cc(C4CCN(Cc5ccc(C6CCCC6)cc5)CC4)ccc3C2=O)C(=O)N1 (centres unmarked) [Compound I-110] , is the recorded inhibition at 10 µM at or above 70%?
1.0

Hi team, for O=C1CCC(N2Cc3cc(C4CCN(Cc5ncon5)CC4)ccc3C2=O)C(=O)N1 (centres unmarked) [Compound I-204] , is the recorded inhibition at 10 µM at or above 70%?
0.0

Assess whether reported inhibition at 10 µM for O=C1CCC(N2Cc3cc(C4CCN(Cc5ccccc5Cl)CC4)ccc3C2=O)C(=O)N1 (centres unmarked) [Compound I-18] sits at 70% or higher.
0.0

Please tell me: is the molecule O=C1CCC(N2Cc3cc(C4CCN(Cc5csc(-c6ccccc6)n5)CC4)ccc3C2=O)C(=O)N1 (centres unmarked) [Compound I-211] at or over 70% in terms of inhibition at 10 µM?
1.0
